These measurements were taken from PubChem BioAssay (NCI).

- Tested on: SNB-19 CNS
- test_method_notes: NCI-60 one-dose screen, 48 h (100 = growth as untreated, 0 = no growth, -100 = all killed)
- run_parameters: 10 µM
This is part of a sample that, as a whole, favours compounds with a hit. Of some 83,000 tested, about 20% had one in any assay. Calls of active or inactive are those of the source. Rule for the calls: active = growth percent below 10; inactive = the rest.
recorded_endpoint: growth

Query (molecule): C/C=C/CC(C)C(O)C1C(=O)NC(CC)C(=O)N(C)CC(=O)N(C)C(CC(C)C)C(=O)NC(C(C)C)C(=O)N(C)C(CC(C)C)C(=O)NC(C)C(=O)NC(C)C(=O)N(C)C(CC(C)C)C(=O)N(C)C(CC(C)C)C(=O)N(C)C(C(C)C)C(=O)N1C (centres undefined) ; field requested: growth
41.7% (inactive)

Query (molecule): O=C1c2ccccc2C(=O)N1OCc1ccccc1 ; field requested: growth
112% (inactive)

Query (molecule): CCOC(=O)CSc1c([N+](=O)[O-])ncn1C ; field requested: growth
99.6% (inactive)

Query (molecule): C#C[C@H]1CCCCCC1O (some centres undefined) ; field requested: growth
106% (inactive)
